# target_or_test_system: T1, recombinant VEGFR-2 protein (water soluble extracellular site of human VEGFR-2 with Fc of human IgG1 … (human, UniProt P35968 20-764))
# T1 construct: extracellular domain; Bought; not shown: Fc of human IgG1
# T1 sequence (P35968 20-764): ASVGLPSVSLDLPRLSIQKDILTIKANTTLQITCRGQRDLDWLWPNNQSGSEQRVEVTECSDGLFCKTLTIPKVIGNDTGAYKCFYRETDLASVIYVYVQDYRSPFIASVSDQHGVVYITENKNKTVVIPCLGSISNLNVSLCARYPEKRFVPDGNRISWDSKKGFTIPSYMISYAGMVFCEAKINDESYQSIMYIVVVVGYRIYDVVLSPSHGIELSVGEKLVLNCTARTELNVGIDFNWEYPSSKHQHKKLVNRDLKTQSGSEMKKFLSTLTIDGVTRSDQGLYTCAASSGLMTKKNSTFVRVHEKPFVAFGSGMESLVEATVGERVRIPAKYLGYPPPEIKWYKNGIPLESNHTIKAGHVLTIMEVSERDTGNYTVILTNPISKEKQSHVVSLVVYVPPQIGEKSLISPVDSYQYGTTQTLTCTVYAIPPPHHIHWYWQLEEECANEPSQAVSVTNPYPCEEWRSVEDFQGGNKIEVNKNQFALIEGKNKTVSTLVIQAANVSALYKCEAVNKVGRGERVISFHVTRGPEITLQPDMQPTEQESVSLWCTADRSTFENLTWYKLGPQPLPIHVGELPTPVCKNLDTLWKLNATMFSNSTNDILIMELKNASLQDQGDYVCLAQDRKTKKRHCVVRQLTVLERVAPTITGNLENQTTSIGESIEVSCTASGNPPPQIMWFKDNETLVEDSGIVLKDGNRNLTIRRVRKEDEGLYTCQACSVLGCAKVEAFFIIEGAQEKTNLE
# test_details: competitive ELISA; synergibody titrated with 1 nM VEGFR-2 on coated VEGF 165
# Protocol: Competitive ELISA is performed using the peptides synthesized above in Section 6A in order to assess the molecular interaction of the binders. […] Then the plate is washed five times with PBS containing 0.1% Tween-20, and blocked at room temperature for two hours with PBS containing 5% BSA. […] The reaction is stopped by adding 50 μl of 5N H₂SO₄ solution, and the OD₄₅₀ value is read on a plate reader (Molecular Devices). […]
Measured IC50 accompanies every entry in the list below.

Field: example entries. Status: answers known.
binder: Syn-Ang-VEGFR-19 (other, Chimeric (human IgG1) SAITAng-2-4 with the peptide at the C-terminus of the heavy chain; also called SAITAng-2-4 x DTN10VEGFR-2-4; not shown: human IgG1 heavy chain constant region with Fc region, from the vector; human light chain constant region, printed as 'constant region of human IgG1') heavy (part 1 of 2): QVQLQQSGAELARPGASVKLSCKASGYTFTDYYINWAKQRTGQGLEWIGEIYPGSGDTYYNEKFKGKATLTADKSSSTAYMQLSSLTSEDSAVYFCARYGYKGVYFDYWGQSTTLTVSS heavy (part 2 of 2): TGSGRMCDGSGPPTNCWFT light: ENVLTQSPAIMAASLGQKVTMTCSASSSVSSSYLHWYQQKSGASPKPLIHRTSNLASGVPARFSGSGSGTSYSLTISSVEAEDDATYYCQQWSGYPFTFGAGTKLELK
observed_result: 1.31 nM
--
binder: Syn-Ang-VEGFR-16 (other, Chimeric (human IgG1) SAITAng-2-4 with the peptide at the C-terminus of the heavy chain; also called SAITAng-2-4 x DTN6VEGFR-2-1; not shown: human IgG1 heavy chain constant region with Fc region, from the vector; human light chain constant region, printed as 'constant region of human IgG1') heavy (part 1 of 2): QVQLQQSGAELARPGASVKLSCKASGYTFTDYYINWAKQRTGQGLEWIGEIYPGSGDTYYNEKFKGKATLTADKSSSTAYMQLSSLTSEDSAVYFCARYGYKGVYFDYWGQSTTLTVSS heavy (part 2 of 2): TGSDDLCYTFPCMHY light: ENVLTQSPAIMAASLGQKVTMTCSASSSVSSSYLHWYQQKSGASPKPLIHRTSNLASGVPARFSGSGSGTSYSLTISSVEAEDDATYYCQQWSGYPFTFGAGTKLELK
observed_result: 1.16 nM
--
binder: Syn-Ang-VEGFR-9 (other, Chimeric (human IgG1) SAITAng-2-2 with the peptide at the C-terminus of the heavy chain; also called SAITAng-2-2 x DTN10VEGFR-2-4; not shown: human IgG1 heavy chain constant region with Fc region, from the vector; human light chain constant region, printed as 'constant region of human IgG1') heavy (part 1 of 2): QVQLQQSGPELVKPGASVKMSCKASGYTFTDYVISWVKQRTGQGLEWIGEIYPGSGSTYYNEKFKGKASLTADKSSNTAYMQLSSLTSADSAVYFCVRSRGDYYAMDYWGQGTSVTVSS heavy (part 2 of 2): TGSGRMCDGSGPPTNCWFT light: DIQMTQSPSSLSASLGGKVTITCKASQDINNYITWYQHKPGKGPRLLIHYTSTLQPGIPSRFSGSGSGRDYSFSISNLEPEDIATYYCLQYDNLLTFGGGTKLEIK
observed_result: 2.04 nM
--
binder: Syn-Ang-VEGFR-18 (other, Chimeric (human IgG1) SAITAng-2-4 with the peptide at the C-terminus of the heavy chain; also called SAITAng-2-4 x DTN9VEGFR-2-3; not shown: human IgG1 heavy chain constant region with Fc region, from the vector; human light chain constant region, printed as 'constant region of human IgG1') heavy (part 1 of 2): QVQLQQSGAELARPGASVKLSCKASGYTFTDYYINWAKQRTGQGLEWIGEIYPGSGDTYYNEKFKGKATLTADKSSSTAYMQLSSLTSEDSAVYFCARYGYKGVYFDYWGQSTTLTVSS heavy (part 2 of 2): EAGAYWCKAWGLSPCLVT light: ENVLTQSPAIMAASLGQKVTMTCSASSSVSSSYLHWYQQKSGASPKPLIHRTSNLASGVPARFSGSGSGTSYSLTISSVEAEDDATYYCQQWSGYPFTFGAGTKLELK
observed_result: 1.65 nM

Next up:
GET /values?readout=IC50&item= Syn-Ang-VEGFR-20 (other, Chimeric (human IgG1) SAITAng-2-4 with the peptide at the C-terminus of the heavy chain; also called SAITAng-2-4 x DTN11VEGFR-2-5; not shown: human IgG1 heavy chain constant region with Fc region, from the vector; human light chain constant region, printed as 'constant region of human IgG1') heavy (part 1 of 2): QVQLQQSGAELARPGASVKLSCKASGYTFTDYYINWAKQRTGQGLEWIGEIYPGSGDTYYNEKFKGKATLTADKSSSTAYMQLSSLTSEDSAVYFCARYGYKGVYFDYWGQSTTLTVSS heavy (part 2 of 2): PGSQGYCHLNMRYQWICDSE light: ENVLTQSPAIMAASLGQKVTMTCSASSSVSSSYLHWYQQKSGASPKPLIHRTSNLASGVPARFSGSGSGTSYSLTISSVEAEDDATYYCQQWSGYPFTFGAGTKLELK
1.38 nM

Origin of values: patent US20110076723A1
